// values below are reported IC50
- System: NF-kB reporter activity
- experimentalProtocol: NF-kB luciferase reporter assay (TNFa-stimulated NF-kB Reporter-HEK293 cells)
- Format: cell-based, human
- particulars: Homo sapiens; NF-kB Reporter-HEK293 cells, TNFa 10 ng/mL; curve fit with top and bottom locked; read-out: IC50 Lock top and bottom of curve
I only need the number, in nM, no unit after it.

Examples with their reported IC50 follow.
{"molecule": "N#CCNC(=O)c1ccc(-c2ccnc(Nc3ccc(N4CCOCC4)cc3)n2)cc1", "unitsSymbol": "nM", "IC50": 430}
{"molecule": "C1=C/COCc2cc(ccc2OCCN2CCCC2)Nc2nccc(n2)-c2cccc(c2)COC/1 [Pacritinib (SB1518)]", "unitsSymbol": "nM", "IC50": 1200}

Continue with the next molecule.
Enquiry: Kindly state the measured IC50 obtained for `Cc1noc2c1-c1ccccc1C(c1ccc(Cl)cc1)=N[C@H]2CC(N)=O` with NF-kB reporter activity.
Return: 540
